Tested on: MALME-3M melanoma
EXPERIMENT_DESCRIPTION: NCI tumour cell line growth inhibition, 48 h
Respond with criterion met for TGI values of 30 µM and above, criterion not met for values below.

>>> print(df.to_string())
                                   compound     assigned_class
0  COc1ccc(CN2C(=O)/C(=C\c3cc(OC)c(OC)c(OC)c3)c3cc(OC)ccc32)cc1      criterion met
1  O=C(c1ccccc1)c1ccc(C(c2c(O)c3ccccc3oc2=O)c2c(O)c3ccccc3oc2=O)cc1      criterion met
2  CCc1ccc(-c2nnc(COc3ccc(-c4nc5ccc(C)cc5[nH]4)cc3OC)o2)cc1  criterion not met
3  O=C1c2ccccc2-c2c1c1ccccc1c(=O)n2Cc1ccco1      criterion met
4  N#CC1=C(N)Oc2cc3c(cc2C1c1cccs1)OCO3 (stereo unspecified)      criterion met
5  Cc1ccc(NC(c2ccccc2)c2ccc3cccnc3c2O)cc1 (stereo unspecified)  criterion not met
6    CCOC(=O)c1cc2cc(N(C(C)=O)C(C)=O)ccc2s1      criterion met
7  Cc1c(N2C(=O)/C(=C/C=C/c3ccccc3)N=C2c2ccccc2)c(=O)n(-c2ccccc2)n1C      criterion met

Ask: Say whether C/C(=N\NC(=S)N1CCCCCC1)c1nccnc1C shows TGI of 30 µM or more.
Reply: criterion met

Ask: Say whether CN(C)c1ccc(-c2cc(=O)c3ccccc3[nH]2)cc1 shows TGI of 30 µM or more.
Reply: criterion met

Ask: Say whether CSC(=S)c1ccc(C(=S)SC)cc1 shows TGI of 30 µM or more.
Reply: criterion met
